Recorded values, source ChEMBL document CHEMBL5055644.

Here, each record is paired with measured pIC50 data.
Target: Protein deacetylase HDAC6 (Homo sapiens, UniProt Q9UBN7)
Sequence (Q9UBN7 whole entry): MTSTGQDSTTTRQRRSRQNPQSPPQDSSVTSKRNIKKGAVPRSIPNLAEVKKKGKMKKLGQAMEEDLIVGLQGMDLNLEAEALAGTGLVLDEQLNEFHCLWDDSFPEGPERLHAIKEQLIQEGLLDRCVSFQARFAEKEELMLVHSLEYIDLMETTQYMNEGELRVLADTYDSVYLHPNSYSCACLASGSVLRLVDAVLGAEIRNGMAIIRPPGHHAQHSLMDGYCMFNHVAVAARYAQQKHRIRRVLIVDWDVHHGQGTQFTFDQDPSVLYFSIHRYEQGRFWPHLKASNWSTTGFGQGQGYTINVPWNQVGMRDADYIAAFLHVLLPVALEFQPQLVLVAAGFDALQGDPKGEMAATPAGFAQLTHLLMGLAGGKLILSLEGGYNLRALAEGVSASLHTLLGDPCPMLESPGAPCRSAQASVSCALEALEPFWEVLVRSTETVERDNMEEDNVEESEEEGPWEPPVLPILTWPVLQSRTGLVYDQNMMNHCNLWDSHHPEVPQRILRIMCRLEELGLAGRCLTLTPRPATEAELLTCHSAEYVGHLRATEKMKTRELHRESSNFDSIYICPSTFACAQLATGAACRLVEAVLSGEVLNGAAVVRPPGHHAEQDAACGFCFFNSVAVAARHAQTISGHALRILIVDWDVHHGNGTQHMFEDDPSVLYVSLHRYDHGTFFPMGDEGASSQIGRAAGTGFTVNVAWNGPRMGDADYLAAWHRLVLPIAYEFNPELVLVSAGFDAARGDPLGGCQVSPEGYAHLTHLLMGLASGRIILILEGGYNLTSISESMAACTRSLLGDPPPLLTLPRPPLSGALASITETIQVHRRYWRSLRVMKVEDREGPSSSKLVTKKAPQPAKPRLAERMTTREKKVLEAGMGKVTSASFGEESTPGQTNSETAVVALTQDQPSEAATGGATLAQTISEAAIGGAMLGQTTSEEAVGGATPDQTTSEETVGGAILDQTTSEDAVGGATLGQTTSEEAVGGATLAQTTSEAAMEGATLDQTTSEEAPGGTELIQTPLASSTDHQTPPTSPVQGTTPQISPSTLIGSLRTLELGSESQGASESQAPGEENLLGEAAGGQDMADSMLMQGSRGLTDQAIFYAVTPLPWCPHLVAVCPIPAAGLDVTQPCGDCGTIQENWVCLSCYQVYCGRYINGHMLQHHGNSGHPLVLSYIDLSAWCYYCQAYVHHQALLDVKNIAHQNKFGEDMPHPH
Here pIC50 is given on a logarithmic scale as minus log10 of the concentration in mol/L.

INSERT INTO results (molecule_smiles, property_name, result_value) VALUES
  ('O=C(CCCSC[C@H](NC(=O)OCc1ccccc1)C(=O)Nc1cccc2ccccc12)NO', 'pIC50', 7.71);

Per the reported Protein deacetylase HDAC6 (Homo sapiens, UniProt Q9UBN7) data, O=C(CCCSC[C@H](NC(=O)c1ccccc1)C(=O)Nc1ccccc1)NO has pIC50 of 7.86

====

Molecular target: Histone deacetylase 2 (Homo sapiens, UniProt Q92769)
Sequence (Q92769 whole entry): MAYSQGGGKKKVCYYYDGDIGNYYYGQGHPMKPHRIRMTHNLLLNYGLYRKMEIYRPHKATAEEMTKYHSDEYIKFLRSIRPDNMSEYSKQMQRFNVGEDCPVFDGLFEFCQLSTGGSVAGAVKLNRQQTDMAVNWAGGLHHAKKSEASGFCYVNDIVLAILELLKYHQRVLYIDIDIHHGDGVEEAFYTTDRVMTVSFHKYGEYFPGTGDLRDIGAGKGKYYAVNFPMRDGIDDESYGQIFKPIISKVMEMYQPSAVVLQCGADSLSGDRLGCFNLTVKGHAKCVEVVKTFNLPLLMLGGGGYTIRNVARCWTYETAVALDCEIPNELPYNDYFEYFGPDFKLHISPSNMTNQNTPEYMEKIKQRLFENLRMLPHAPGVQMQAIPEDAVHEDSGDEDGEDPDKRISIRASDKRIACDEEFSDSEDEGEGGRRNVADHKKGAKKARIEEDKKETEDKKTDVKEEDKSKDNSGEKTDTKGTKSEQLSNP
property-name: IC50

Record O=C(CCCSC[C@H](NC(=O)c1ccccc1)C(=O)Nc1ccccc1)NO ; system Histone deacetylase 2 (Homo sapiens, UniProt Q92769); IC50 = > 200 nM
